TGI overview
Tested on: MDA-MB-231 breast
measurement_description: NCI tumour cell line growth inhibition, 48 h

molecule=COc1cccc2c1c(C(=O)C(=O)Nc1cc(C)no1)cn2Cc1ccc(F)cc1 recorded_metric=TGI observed_result="> 100 µM"
molecule="CC1CNc2ccccc2N=C1NN (stereo not given)" recorded_metric=TGI observed_result="> 100 µM"
molecule=O=C1/C(=C\c2c[nH]c3ccccc23)c2ccccc2N1c1c(Cl)cccc1Cl recorded_metric=TGI observed_result="3.21 µM"
molecule=CC(C)c1cc(-c2n[nH]c(=O)n2-c2ccc3c(ccn3C)c2)c(O)cc1O recorded_metric=TGI observed_result="7.52 µM"

*Q* Returns the measured TGI for the input molecule. Input: `O=c1cc(NNc2ccccc2)[nH]c(=S)[nH]1`
*A* 65.2 µM

*Q* Now the same for COCCN(C(C)=O)C1CCC2(SCCS2)c2[nH]c3ccccc3c21 (stereo not given)
*A* > 100 µM

*Q* Further, for `S=c1sc2c(s1)SCCCCSCCCCSc1sc(=S)sc1SCCCCSCCCCS2` ?
*A* > 100 µM

*Q* Ok, now `COC(=O)[C@@]1(C)CC[C@]2(C)CC[C@]3(C)C4=CC=C5C(=CC(=O)C(O)=C5C)[C@]4(C)[C@@H](O)C[C@@]3(C)[C@@H]2C1`
*A* 21.8 µM

*Q* # iterate: `COc1ccc2c(C)cc(N/N=C(\C)C=O)nc2c1`
*A* 24 µM

*Q* And for `CN1CC[C@@]2(c3cccc(O)c3)CC(=O)/C(=C/c3ccccc3)[C@H]1C2` ?
*A* 23.6 µM

* * *

TGI: recorded values
Tested on: LXFL 529 NSCLC
measurement_description: NCI tumour cell line growth inhibition, 48 h

Here is how some compounds turned out for TGI.
compound=C[C@H](OCc1ccccc1)C(=O)N1CCS(=O)(=O)N2CCC[C@H]2C1=O observed_result="> 100 µM"
compound="CCOC(=O)COc1ccccc1/C=C1\\CCC(CN(C)C)C1=O (configuration not stated)" observed_result="6.36 µM"
compound=CCN(CC)c1ccc(C(=O)c2ccccc2C(=O)O)c(O)c1 observed_result="> 100 µM"
compound=O=C(COc1ccc2c(=O)cc(-c3ccccc3)oc2c1)N1CCN(c2ccccc2)CC1 observed_result="> 100 µM"
compound=COc1ccc(OC)c(NC(=O)C2=C(C)NC(C)=C(C(=O)Nc3cc(OC)ccc3OC)C2c2ccccc2)c1 observed_result="> 100 µM"
compound=CCCNC1=C(C(=O)OCC)C(=O)CO1 observed_result="> 100 µM"

*Q* Suppose we examine the compound NC1C[C@H](n2cc(/C=C/Br)c(=O)[nH]c2=O)C[C@@H]1CO (some centres not stated) ; what TGI value has been reported?
*A* > 100 µM

*Q* For C=CC/C=C/Cc1csc(C(C)(C)C(O)C/C=C/C(=C)CCNC(=O)OC)n1 (configuration not stated) then?
*A* > 100 µM

*Q* Would you mind doing CN(C)C(=O)OC(Cn1cncn1)c1ccc(Cl)cc1Cl (configuration not stated) as well?
*A* > 100 µM

*Q* Proceed to `C1C[OH+]CC[OH+]CCNCC[OH+]CC[OH+]CCN1.N.[Cl-].[Pt+4]`
*A* 64 µM

*Q* Now try `Nn1c(NNC(=O)C(=O)Nc2cc(Cl)c(Cl)cc2Cl)n[nH]c1=S` .
*A* > 100 µM

*Q* Next compound: `O=C(N/C(=C\c1ccc2c(c1)OCO2)c1nc2ccccc2[nH]1)c1ccccc1`
*A* 97.4 µM

* * *

Tested on: SNB-75 CNS
measurement_description: NCI tumour cell line growth inhibition, 48 h; in the data active = GI50 below about 0.43 µM; inactive = the rest
# output must be one of active, inactive

Some solved cases for reference:
compound=NCCn1c(=O)[nH]c(=O)[nH]c1=S system_name="SNB-75 CNS" label_class=inactive
compound="CC[C@@H](C(=O)O)C1CC[C@H](C)C([C@@H](C)[C@H](O)[C@H](C)C(=O)[C@H](CC)C2O[C@]3(C=C[C@@H](O)[C@]4(CC[C@@](C)(C5CC[C@](O)(CC)[C@H](C)O5)O4)O3)[C@H](C)C[C@@H]2C)O1 (some centres undefined)" system_name="SNB-75 CNS" label_class=inactive
compound=C=CCOc1cccc(/C=C2\SC(=Nc3ccc(O)cc3)NC2=O)c1 system_name="SNB-75 CNS" label_class=active
compound=CN1CCC(n2cnc(-c3ccc(F)cc3)c2-c2ccnc(NCCO)n2)CC1 system_name="SNB-75 CNS" label_class=inactive

*Q* Write down the call the test reported for this compound. Item: `Cc1ccc(-c2cn3ccnc3c(-c3ccc(Cl)cc3)n2)cc1`
*A* inactive

*Q* Then this compound: `O=C(CCCCCCC(=O)Nc1ccc(N(CCCl)CCCl)cc1)NO`
*A* inactive

*Q* Entry `CN(C)CCNc1c2c(c(NCCN(C)C)c3[nH]ccc13)C(=O)c1ccccc1C2=O` please
*A* inactive

*Q* Then this compound: `CCc1nccc2c1nc(-c1nonc1N)n2CC`
*A* inactive

*Q* And what about the compound `N=C(N)c1ccc(-c2ccc(-c3cc(Cl)cc(Cl)c3)o2)nc1` ?
*A* inactive

* * *

Overview of reported TGI across a group of compounds:
Tested on: 786-0 renal
measurement_description: NCI tumour cell line growth inhibition, 48 h

Some compounds with known TGI results, for comparison:
compound=N#CCc1nc2ccccc2c(=O)[nH]1 observed_result="> 100 µM"
compound=O=C1C(Cl)=C(OCCCCl)C(=O)c2c(O)ccc(O)c21 observed_result="4.81 µM"

--- query ---
*Q* Recorded TGI for Nc1nc2c(c3ncncc13)C(c1cccc(C(F)(F)F)c1)Cc1ncncc1-2 (stereo not drawn) with 786-0 renal, please?
*A* 27.4 µM

* * *

Tested on: SF-539 CNS
measurement_description: NCI tumour cell line growth inhibition, 48 h
recorded_metric: TGI

Completed entries (count: 3):
compound=COc1cc(/C=C/c2cc(O)c3cc(C(C)=O)c(=O)oc3c2)cc2c1O[C@]1(C)CC[C@@H](O)C(C)(C)[C@H]1C2 observed_result="> 23.6 µM"
compound="COc1ccc(/C=C2\\CCCC3=C2N=C2SC(C)=NN2C3c2ccc(OC)c(OC)c2)cc1OC (stereo unspecified)" observed_result="> 100 µM"
compound="COC(=O)C1=CC2CCCC1(O)C(C(C)=O)C2 (stereo unspecified)" observed_result="26.6 µM"

*Q* Quick one: TGI of COc1cc(Cn2c3ccccc3c3cc(C)c4c(c32)C=CC(C)(CCC=C(C)C)O4)cc2c1[nH]c1ccccc12 (stereo unspecified) ?
*A* > 100 µM

*Q* Follow-up entry: `COc1ccc2nc(-c3ccc(-c4noc(-c5cc(OC)c(OC)c(OC)c5)n4)cc3)[nH]c2c1`
*A* 3.83 µM

*Q* Entry CN(C)C(=O)OC(Cn1cncn1)c1ccc(Cl)cc1Cl (stereo unspecified) please
*A* > 100 µM

*Q* Next compound up: CCCC1(NC(=O)C(F)(F)F)CC(OC)OC2COC(c3ccccc3)OC21 (stereo unspecified)
*A* > 100 µM

*Q* Repeat with `NCCOCCOCCNc1nc(Cc2ccccc2)nc(NCCCN2CCCC2=O)n1`
*A* > 100 µM

* * *

Tested on: HCC-2998 colon
measurement_description: NCI tumour cell line growth inhibition, 48 h
recorded_metric: GI50

compound="COc1cc(C2CC(c3ccc4c(c3)OCO4)=NN2C=O)cc(OC)c1OC (stereo not given)" recorded_metric=GI50 observed_result="4.44 µM"
compound=O=C(NCCO)Nc1ccc(-c2nc(N3CCOCC3)c3cccn3n2)cc1 recorded_metric=GI50 observed_result="0.488 µM"
compound=CN(C)CC(=O)Nc1ccc(Cn2nnc3c2C(=O)c2nnn(Cc4ccc(NC(=O)CN(C)C)cc4)c2C3=O)cc1 recorded_metric=GI50 observed_result="0.162 µM"

*Q* What value of GI50 on HCC-2998 colon does `COc1ccc2sc3c(NCCCN(C)C)nc4ccccc4c3c(=O)c2c1` have?
*A* 1.7 µM

*Q* Same lookup for `Cc1cc(N(CCCl)CCCl)ccc1C=Nc1ccc(-c2csc(Cc3ccccc3)n2)cc1` , please.
*A* 14.4 µM

* * *

Test system: MOLT-4 leukemia
measurement_description: NCI tumour cell line growth inhibition, 48 h
recorded_metric: TGI

Worked cases, TGI given:
molecule="CCCCCCCCCCCC(=O)OCC1OC(n2cc(F)c(=O)[nH]c2=O)C(NC(=O)OCc2ccccc2)C(OC(=O)CCCCCCCCCCC)C1O (stereo unspecified)" recorded_metric=TGI observed_result="> 100 µM"
molecule=N=c1oc2cc(O)ccc2cc1C(=O)NCc1ccccc1 recorded_metric=TGI observed_result="53.3 µM"
molecule=COc1ccc(OCc2nc3cc(C(F)(F)F)ccc3nc2-c2ccccc2)cc1 recorded_metric=TGI observed_result="> 100 µM"

*Q* Requested read-out TGI, target or system MOLT-4 leukemia, entry `CCOC(=O)c1c(N2CCCC2)nsc1Nc1ccc(F)cc1`
*A* 70.1 µM

*Q* Again, but for O=C1[C@H]2ON(c3ccccc3)C(c3ccccc3Cl)[C@H]2C(=O)N1c1ccc(Cc2ccc(N3C(=O)[C@@H]4ON(c5ccccc5)C(c5ccccc5Cl)[C@@H]4C3=O)cc2)cc1 (stereo partly specified)
*A* > 100 µM

*Q* Also need `O=C(Cc1ccccc1)NNc1nc(NNC(=O)c2ccncc2)nc(Nc2ccc([N+](=O)[O-])cc2)n1` , thanks.
*A* > 10 µM
